Cited source: patent US8309546B2

- Tested on: Akt (threonine 308) phosphorylation in AN3CA tumor
- ASSAY INFO: Akt phosphorylation inhibition assay in xenograft
- Type: in vivo, female nude mouse
- EXPERIMENTAL PARAMETERS: Mus musculus, AN3-CA, oral, 6 hr after dosing
- Protocol: A tumor section was prepared from a human endometrial cancer cell strain AN3CA tumor mass formed in a female nude mouse as subcutaneously transplanted tumor and a xenograft model was prepared by subcutaneously transplanting the tumor to a female nude mouse. […] The signal intensity detected using an image analyzer Typhoon 9400 (GE Healthcare) was quantified, and the phosphorylation inhibition rate (%) was calculated by the following formula. […]
MEASURED PARAMETER: inhibition at 10 mg/kg

Past entries and their recorded results:
[
  {
    "STRUCTURE NOTATION": "CC(C)Cn1c(N2CCN(C(=O)[C@H](C)O)[C@H](C)C2)nc2c(N3CCOCC3)nc(-c3cnc(N)nc3)nc21",
    "READING": "> 60%"
  },
  {
    "STRUCTURE NOTATION": "CC(C)Cn1c(N2CCN(C(=O)[C@H](C)O)CC2)nc2c(N3CCOC[C@@H]3C)nc(-c3cnc(N)nc3)nc21",
    "READING": "> 60%"
  },
  {
    "STRUCTURE NOTATION": "CC(C)Cn1c(N2CCN(S(C)(=O)=O)[C@@H](C)C2)nc2c(N3CCOCC3)nc(-c3cnc(N)nc3)nc21",
    "READING": "30 to 60%"
  },
  {
    "STRUCTURE NOTATION": "C[C@@H](O)CC(=O)N1CCN(c2nc3c(N4CCOCC4)nc(-c4cnc(N)nc4)nc3n2CC(F)(F)F)CC1",
    "READING": "> 60%"
  },
  {
    "STRUCTURE NOTATION": "CC(=O)N1CCN(c2nc3c(N4CCOCC4)nc(-c4cnc(N)nc4)nc3n2CC(C)C)C[C@@H]1C",
    "READING": "> 60%"
  },
  {
    "STRUCTURE NOTATION": "CS(=O)(=O)N1CCN(c2nc3c(N4CCOCC4)nc(-c4cnc(N)nc4)nc3n2CC(F)F)CC1",
    "READING": "30 to 60%"
  }
]

List reported inhibition at 10 mg/kg for each of these molecules:
1. C[C@H](O)C(=O)N1CCN(c2nc3c(N4CCOCC4)nc(-c4cnc(N)nc4)nc3n2CC2CC2)CC1
2. CC(C)Cn1c(N2CCN(C(=O)CO)CC2)nc2c(N3CCOC[C@@H]3C)nc(-c3cnc(N)nc3)nc21
3. C[C@@H](O)C(=O)N1CCN(c2nc3c(N4CCOCC4)nc(-c4cnc(N)nc4)nc3n2CC2CC2)C[C@@H]1C

1: > 60%; 2: 30 to 60%; 3: > 60%

Report inhibition at 10 mg/kg for each item below.
1. CC(=O)N1CCN(c2nc3c(N4CCOCC4)nc(-c4cnc(N)nc4)nc3n2CC(C)C)C[C@H]1C
2. CNc1ncc(-c2nc(N3CCOCC3)c3nc(N4CCN(C(C)=O)CC4)n(CC(F)(F)F)c3n2)cn1

1. 30 to 60%
2. 30 to 60%

For each of the items listed, what is its inhibition at 10 mg/kg?
1. CNc1ncc(-c2nc(N3CCOCC3)c3nc(N4CCN(C(C)=O)[C@H](C)C4)n(CC(F)(F)F)c3n2)cn1
2. CNc1ncc(-c2nc(N3CCOCC3)c3nc(N4CCN(S(C)(=O)=O)[C@@H](C)C4)n(CC(F)(F)F)c3n2)cn1
3. CC[C@H]1CN(c2nc3c(N4CCOCC4)nc(-c4cnc(N)nc4)nc3n2CC(F)(F)F)CCN1C(=O)[C@H](C)O
4. CC(C)Cn1c(N2CCN(S(C)(=O)=O)[C@H](C)C2)nc2c(N3CCOCC3)nc(-c3cnc(N)nc3)nc21
5. C[C@H](O)C(=O)N1CCN(c2nc3c(N4CCOCC4)nc(-c4cnc(N)nc4)nc3n2CC(F)(F)F)C[C@@H]1C
6. C[C@H](O)C(=O)N1CCN(c2nc3c(N4CCOCC4)nc(-c4cnc(N)nc4)nc3n2CC(F)(F)F)C[C@H]1C
7. C[C@H](O)C(=O)N1CCN(c2nc3c(N4CCOCC4)nc(-c4cnc(N)nc4)nc3n2CC2CC2)C[C@@H]1C

1. > 60%
2. 30 to 60%
3. > 60%
4. 30 to 60%
5. > 60%
6. > 60%
7. > 60%

---

pIC50: −log10 of the molar value.
Measured pIC50 (human mTOR (His-tagged mTOR (1362C)) (Homo sapiens))

Solved cases (3 shown):
[
  {
    "MOLECULE": "Nc1ncc(-c2nc(N3CCOCC3)c3nc(NCCO)n(CC4CC4)c3n2)cn1 [Example 30]",
    "READING": "7.00 to 7.52"
  },
  {
    "MOLECULE": "C[C@@H]1CN(c2nc3c(N4CCOCC4)nc(-c4cnc(N)nc4)nc3n2CC2CC2)CCN1 [Example 94]",
    "READING": "7.52 to 8.00"
  },
  {
    "MOLECULE": "CNc1ncc(-c2nc(N3CCOCC3)c3nc(N4CCN(S(C)(=O)=O)CC4)n(CC4CCOC4)c3n2)cn1 (stereo not drawn) [Example 25]",
    "READING": "7.00 to 7.52"
  }
]

# return pIC50 for each item in the list
1. C[C@@H]1CN(c2nc3c(N4CCOCC4)nc(-c4cnc(N)nc4)nc3n2CC(F)(F)F)CCN1 [Example 59]
2. CS(=O)(=O)C1CCN(c2nc3c(N4CCOCC4)nc(-c4cnc(N)nc4)nc3n2CC(F)(F)F)CC1 [Example 57]
3. CS(=O)(=O)N1CCN(c2nc3c(N4CCOCC4)nc(-c4cnc(N)nc4C(F)(F)F)nc3n2CC2CC2)CC1 [Example 7]
4. CC(=O)N1[C@H](C)CN(c2nc3c(N4CCOCC4)nc(-c4cnc(N)nc4)nc3n2CC(F)(F)F)C[C@@H]1C [Example 115]
5. Nc1ncc(-c2nc(N3CCOCC3)c3nc(N4CCN(C=O)CC4)n(CC(F)(F)F)c3n2)cn1 [Example 71]

1: 7.52 to 8.00; 2: > 8.00; 3: 6.30 to 7.00; 4: > 8.00; 5: > 8.00

---

pIC50: −log10 of the molar value.
The listing below reports pIC50 for compounds tested on human mTOR (His-tagged mTOR (1362C)) (Homo sapiens, UniProt P42345).
Sequence (P42345 1362-2549): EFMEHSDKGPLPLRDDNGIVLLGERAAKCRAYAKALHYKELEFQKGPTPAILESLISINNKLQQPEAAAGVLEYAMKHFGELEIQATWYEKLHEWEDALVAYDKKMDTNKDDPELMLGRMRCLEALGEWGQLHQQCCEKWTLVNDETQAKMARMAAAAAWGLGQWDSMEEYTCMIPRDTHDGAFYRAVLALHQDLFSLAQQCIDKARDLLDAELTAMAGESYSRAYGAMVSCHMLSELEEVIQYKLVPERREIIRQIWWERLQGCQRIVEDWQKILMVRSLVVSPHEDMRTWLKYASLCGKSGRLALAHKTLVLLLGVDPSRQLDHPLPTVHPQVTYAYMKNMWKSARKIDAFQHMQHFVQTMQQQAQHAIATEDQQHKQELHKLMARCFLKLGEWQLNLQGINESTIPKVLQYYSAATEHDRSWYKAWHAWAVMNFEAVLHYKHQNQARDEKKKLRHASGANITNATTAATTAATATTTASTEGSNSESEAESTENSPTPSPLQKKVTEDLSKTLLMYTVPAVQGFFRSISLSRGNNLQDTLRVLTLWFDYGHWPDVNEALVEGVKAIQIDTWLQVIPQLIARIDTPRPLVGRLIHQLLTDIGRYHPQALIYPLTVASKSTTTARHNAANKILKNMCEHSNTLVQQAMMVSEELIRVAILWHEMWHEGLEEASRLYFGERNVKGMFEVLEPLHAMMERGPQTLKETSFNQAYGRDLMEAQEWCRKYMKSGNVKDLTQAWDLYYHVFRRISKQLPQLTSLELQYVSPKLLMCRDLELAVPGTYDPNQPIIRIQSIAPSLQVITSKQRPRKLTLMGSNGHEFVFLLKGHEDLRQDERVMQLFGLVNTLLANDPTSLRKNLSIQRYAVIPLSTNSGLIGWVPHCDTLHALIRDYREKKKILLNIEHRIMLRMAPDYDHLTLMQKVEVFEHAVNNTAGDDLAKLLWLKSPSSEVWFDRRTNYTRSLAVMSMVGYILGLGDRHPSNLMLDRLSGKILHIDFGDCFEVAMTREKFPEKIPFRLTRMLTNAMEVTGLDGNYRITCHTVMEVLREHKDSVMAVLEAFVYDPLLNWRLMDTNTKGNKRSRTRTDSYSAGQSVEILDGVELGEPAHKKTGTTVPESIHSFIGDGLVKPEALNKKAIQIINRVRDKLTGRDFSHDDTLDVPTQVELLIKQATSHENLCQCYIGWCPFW

Example entries and their recorded answers appear below.
[
  {
    "COMPOUND": "CNc1ncc(-c2nc(N3CCOCC3)c3nc(N4CCN(S(C)(=O)=O)[C@H](C)C4)n(CC(F)(F)F)c3n2)cn1 [Example 106]",
    "MEASURED TARGET": "human mTOR (His-tagged mTOR (1362C)) (Homo sapiens, UniProt P42345)",
    "pIC50": "> 8.00"
  },
  {
    "COMPOUND": "CC(C)Cn1c(N2CCN(C(=O)C[C@@H](C)O)CC2)nc2c(N3CCOCC3)nc(-c3cnc(N)nc3)nc21 [Example 81]",
    "MEASURED TARGET": "human mTOR (His-tagged mTOR (1362C)) (Homo sapiens, UniProt P42345)",
    "pIC50": "7.52 to 8.00"
  },
  {
    "COMPOUND": "Cc1nc(N)ncc1-c1nc(N2CCOCC2)c2nc(N3CCC(NS(C)(=O)=O)C3)n(CC3CC3)c2n1 (stereo not shown) [Example 35]",
    "MEASURED TARGET": "human mTOR (His-tagged mTOR (1362C)) (Homo sapiens, UniProt P42345)",
    "pIC50": "≤ 6.30"
  },
  {
    "COMPOUND": "Nc1ncc(-c2nc(N3CCOCC3)c3nc(NCCN4CCOCC4)n(CC4CC4)c3n2)cn1 [Example 29]",
    "MEASURED TARGET": "human mTOR (His-tagged mTOR (1362C)) (Homo sapiens, UniProt P42345)",
    "pIC50": "6.30 to 7.00"
  },
  {
    "COMPOUND": "CC(=O)N1CCN(c2nc3c(N4CCOCC4)nc(-c4cnc(N)nc4)nc3n2CC(F)(F)F)CC12CC2 [Example 119]",
    "MEASURED TARGET": "human mTOR (His-tagged mTOR (1362C)) (Homo sapiens, UniProt P42345)",
    "pIC50": "7.52 to 8.00"
  }
]

Lab note: each compound below needs its pIC50 filled in.
1. C[C@@H]1CN(c2nc3c(N4CCOCC4)nc(-c4cnc(N)nc4)nc3n2CC(F)(F)F)C[C@H](C)N1C(=O)CO [Example 120]
2. C[C@@H](O)CC(=O)N1CCN(c2nc3c(N4CCOCC4)nc(-c4cnc(N)nc4)nc3n2CC(F)(F)F)CC1 [Example 70]
3. CC(=O)N1CCN(c2nc3c(N4CCOCC4)nc(-c4cnc(N)nc4)nc3n2CC(F)(F)F)CC1 [Example 9]
4. CC(=O)N1CCN(c2nc3c(N4CCOCC4)nc(-c4cnc(N)nc4)nc3n2CC2CC2)C[C@@H]1C [Example 96]
5. CC(C)Cn1c(N2CCN(S(C)(=O)=O)[C@@H](C)C2)nc2c(N3CCOCC3)nc(-c3cnc(N)nc3)nc21 [Example 53]

> 8.00
> 8.00
> 8.00
> 8.00
7.52 to 8.00
